Entries and their TGI values follow.
- Test system: M14 melanoma
- Assay Remarks: NCI tumour cell line growth inhibition, 48 h
Measured Property: TGI

Compound	Endpoint Value
CCC1(O)C(=O)OCc2c1cc1n(c2=O)Cc2cc3c(N)cccc3nc2-1 (stereo unspecified)	0.0872 µM
NC(N)=NC(N)=Nc1cc2ccccc2c2ccccc12	24.7 µM
O=C(CSc1nnc(Cc2ccccc2)o1)Nc1cccc([N+](=O)[O-])c1	> 100 µM
O=C(O)c1cc(N=Nc2ccc([As](=O)(O)O)cc2)ccc1O	> 100 µM
N#C/C(C(=S)Nc1ccccc1)=C1/NN=C2c3ccccc3C(=O)NN21	40.6 µM
Nc1nccc(-c2c(-c3ccc(F)cc3)ncn2CCCN2CCOCC2)n1	> 25 µM
Cc1cc(O)c(/C=N/C(=S)NCCc2ccccc2)c(=O)o1	> 100 µM
O=C(CNc1ccc(Cl)cc1)Nn1c(-c2ccccc2)nc2ccccc2c1=O	20.3 µM
COC(=O)c1cc2c(c(C(=O)OC)c1O)C(=O)C=CC2=O	> 66.9 µM
CNC1C(=O)C(C)C(O)(C(CC(C)C(O)/C=C/C=C/CNC(=O)C(C)(C)C(O)\C(C)=C/C=C\C=C\Cc2cnc(C)o2)OC)C12C(=O)OC2COC (stereo unspecified) (tested in a mixture with another compound)	27 µM
COc1ccc2c(c1)OCc1c-2oc2ccccc2c1=O	> 100 µM
COc1cccc(NCc2nnc(Nc3ccc(Cl)cc3)c3ccccc23)c1	4.69 µM
N#CCCN(CCC#N)c1ccc(/C=C2\N=C(CN3C(=O)c4ccccc4C3=O)OC2=O)cc1	> 100 µM
COc1cccc(N=Cc2c3ccccc3c(=O)n3c2oc2ccccc23)c1	> 100 µM
NS(=O)(=O)c1nnc(NC(=O)c2ccccc2)s1	> 100 µM
O=C(c1ccccc1)c1c2ccccn2c2cccc[n+]12	> 100 µM
CSc1nc(Cl)c2c(n1)Sc1nc3cc4c(cc3n1C2O)OCO4 (stereo unspecified)	> 43.9 µM
O=C(O)C1C(C(=O)O)C(C(=O)O)C1C(=O)O (stereo unspecified)	> 100 µM
Cc1ccc(NC(=O)C2C(=O)N(c3ccc(C)c(C)c3)C(=O)/C2=N/O)cc1C (stereo unspecified)	> 100 µM
COc1ccc(-c2c(C#N)c(NC(=S)NC(=O)c3ccccc3)nc3c2CCCC3)cc1OC	> 100 µM
Cc1c(Cc2ccccc2)n(COCCCO)c(=O)[nH]c1=O	> 100 µM

###

- Tested on: HOP-62 NSCLC
- Assay Remarks: NCI tumour cell line growth inhibition, 48 h

Compound	Experimental Target	TGI
COc1ccc(-c2cc3c(nn2)-c2ccccc2C3=O)cc1	HOP-62 NSCLC	> 100 µM
CCSc1nc(N2CCOCC2)c2cn[nH]c2n1	HOP-62 NSCLC	> 100 µM
COc1cc2c(/C=C3/C(=O)Nc4cccc(Cl)c43)c(Cl)n(Cc3ccccc3)c2cc1C	HOP-62 NSCLC	53.9 µM
CC(C)=CC(=O)N1CCN(C(=O)C=C(C)C)CC1	HOP-62 NSCLC	> 100 µM
C=C1C(=O)O[C@H]2[C@H]1CC/C(COC(=O)/C=C\C(=O)NCc1ccc(Cn3c(=O)sn(-c4ccc(C#N)cc4)c3=O)cc1)=C\CC[C@@]1(C)O[C@@H]21	HOP-62 NSCLC	9 µM
Cc1nnc([C@@]2(C)CC[C@H]3[C@@H](CC=C4C[C@@H](O)CC[C@@]43C)[C@@H]2CC#N)o1	HOP-62 NSCLC	> 100 µM
COc1ccc(OC)c2c1C(=O)C(Cl)=C(N1CCN(CCOCCO)CC1)C2=O	HOP-62 NSCLC	22.7 µM
CC1CN=C(Nc2ccc(S(N)(=O)=O)cc2)S1 (stereo not given)	HOP-62 NSCLC	> 100 µM
COC(=O)C1=C(c2ccc3c(c2)OCO3)O[C@H](c2ccc3c(c2)OCO3)[C@H]1COC(C)=O	HOP-62 NSCLC	> 100 µM
COC1(OC)C2(Cl)CCC1(Cl)C(OC(C)=O)C2 (stereo not given)	HOP-62 NSCLC	> 100 µM
Nc1nc(Cl)cc(NCC2(CO)CC(OCc3ccccc3)C2)n1 (stereo not given)	HOP-62 NSCLC	> 100 µM
CN1CCC(OC(=O)Oc2ccccc2)(c2ccccc2)CC1	HOP-62 NSCLC	40.6 µM
COC12C=CC(CC1)C(C)(C)C2=O (stereo not given)	HOP-62 NSCLC	> 100 µM
Cc1c(Cc2ccccc2)n(COCCCO)c(=O)[nH]c1=O	HOP-62 NSCLC	> 100 µM
COc1ccc2c(c1)OCc1c-2oc2ccccc2c1=O	HOP-62 NSCLC	> 100 µM
Cn1cc(-c2csc(-c3cccc(F)c3)n2)c2cccnc21	HOP-62 NSCLC	34.5 µM
CC(=O)NNc1nc(C)c(C(/C=C/c2cccc([N+](=O)[O-])c2)=N/NC(=S)NN)s1	HOP-62 NSCLC	> 100 µM
COC(=O)C(=O)C(C(=O)C(=O)Nc1ccc(C)cc1C)c1nc2ccccc2[nH]c1=O (stereo not given)	HOP-62 NSCLC	> 100 µM
CCN(CC)Cc1cc(Nc2ccnc3ccc4c(nnn4C)c23)ccc1O	HOP-62 NSCLC	19 µM
CNC1C(=O)C(C)C(O)(C(CC(C)C(O)/C=C/C=C/CNC(=O)C(C)(C)C(O)\C(C)=C/C=C\C=C\Cc2cnc(C)o2)OC)C12C(=O)OC2COC (stereo not given) (tested in a mixture with another compound)	HOP-62 NSCLC	24.1 µM
